Here the recorded pEC50 is given for each entry.
target: GPR120L receptor (Homo sapiens (Human)); assay: Beta (β) arrestin 2 Interaction Assay (BRET assay), β-galactosidase enzyme fragment complementation; details: CHO-K1 cells stably expressing the GPR120L receptor; β-arrestin recruitment; 2 hours incubation
Sequence (Q5NUL3 other isoform, or with tags, fused parts or gaps): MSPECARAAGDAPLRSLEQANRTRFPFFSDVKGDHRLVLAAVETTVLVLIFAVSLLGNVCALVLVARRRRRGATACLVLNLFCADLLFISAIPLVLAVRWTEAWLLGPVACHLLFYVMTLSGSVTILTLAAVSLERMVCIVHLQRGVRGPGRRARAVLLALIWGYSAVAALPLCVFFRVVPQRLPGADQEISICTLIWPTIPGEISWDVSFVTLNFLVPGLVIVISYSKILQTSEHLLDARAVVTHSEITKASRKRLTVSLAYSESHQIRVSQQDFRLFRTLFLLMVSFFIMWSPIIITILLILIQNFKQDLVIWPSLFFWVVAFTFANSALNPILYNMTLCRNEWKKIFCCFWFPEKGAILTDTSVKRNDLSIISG
pEC50: −log10 of the molar value.

Completed entries (count: 2):
>  <molecule>
O=C(O)CCCc1ccc(OCc2ccccc2-c2ccc3c(c2)CCCC3)cc1

>  <target.of.assay>
GPR120L receptor (Homo sapiens (Human))

>  <observed.property>
pEC50

>  <test.result>
6.30 to 8.00

$$$$
>  <molecule>
CC1(C)CCC=C1c1ccc(-c2ccc(F)cc2COc2ccc(CCC(=O)O)cc2)cc1

>  <target.of.assay>
GPR120L receptor (Homo sapiens (Human))

>  <observed.property>
pEC50

>  <test.result>
4.30 to 5.30

$$$$

Any idea what pEC50 was measured for O=C(O)CCCc1ccc(OCc2cc(F)ccc2-c2ccc3c(c2)CCC3)cc1 ?
6.30 to 8.00

Any idea what pEC50 was measured for O=C(O)CCCc1ccc(OCc2cc(F)ccc2-c2ccc(C3(O)CCC3)s2)cc1 ?
5.30 to 6.30

Any idea what pEC50 was measured for O=C(O)CCCc1ccc(OCc2cc(F)ccc2-c2cnc(C3CC3)nc2)cc1 ?
6.30 to 8.00

Any idea what pEC50 was measured for O=C(O)CCCc1ccc(OCc2cc(F)ccc2-c2ccc3c(c2)CCCC3)cc1 ?
6.30 to 8.00

Any idea what pEC50 was measured for Cc1cc(-c2ccc(F)cc2COc2ccc(CCCC(=O)O)cc2)ccc1C1CC1 ?
6.30 to 8.00

Any idea what pEC50 was measured for O=C(O)CCCc1ccc(OCc2cc(F)ccc2-c2nc3c(s2)CCCCC3)cc1 ?
6.30 to 8.00

Any idea what pEC50 was measured for N#CC1(c2ccc(-c3ccc(F)cc3COc3ccc(CCC(=O)O)cc3)cn2)CC1 ?
5.30 to 6.30

Any idea what pEC50 was measured for N#CC1(c2ccc(-c3ncccc3COc3ccc(CCC(=O)O)cc3)cc2)CC1 ?
4.30 to 5.30

Any idea what pEC50 was measured for O=C(O)CCCc1ccc(OCc2ccccc2-c2ccc3c(c2)CC3)cc1 ?
6.30 to 8.00

Any idea what pEC50 was measured for O=C(O)CCCc1ccc(OCc2cc(F)ccc2-c2ccc3c(c2)CCC=C3)cc1 ?
6.30 to 8.00

Any idea what pEC50 was measured for O=C(O)CCCc1ccc(OCc2cc(F)ccc2-c2ccc(C3CCC3)s2)cc1 ?
6.30 to 8.00

Any idea what pEC50 was measured for O=C(O)CCCc1ccc(OCc2cc(F)ccc2-c2ccc(C3CC3(F)F)cc2)cc1 (centres unmarked) ?
6.30 to 8.00

Any idea what pEC50 was measured for CC1(c2ccc(-c3ccc(F)cc3COc3ccc(CCCC(=O)O)cc3)cc2)CC1 ?
6.30 to 8.00

Any idea what pEC50 was measured for O=C(O)CCCc1ccc(OCc2cc(F)ccc2-c2ccc(C3(F)CC3)s2)cc1 ?
4.30 to 5.30
